This section presents binders with their documented interaction score values.
experimental.target: T1, 4H3628-bN
T1 chain: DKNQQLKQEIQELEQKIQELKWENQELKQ
procedure.details: two-hybrid library CCNG1;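 further: natural log of median RNA to DNA barcode read ratio; higher means stronger binding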

binder	result.type	measured.result
DKNQQLEQENQELKQKIQELEWEIQELKQ [4H3298-bN]	interaction score	-0.916
DKNQQLEQKNQELEQEIQELEWKIQELKQ [4H3462-bN]	interaction score	0.522
DKNQQLKQEIQELEQENQELKWKIQELEQ [4H3613-bN]	interaction score	-1.69
DKNQQLEQEIQELKQKIQELEWKNQELEQ [4H3175-bN]	interaction score	-0.511

We next turn to a different binder, shown below.
Given the binder DENQQLEQENQELKQEIQELEWKIQELKQ [4H1222-bN] , write its reported interaction score. -0.764
